// provenance: patent US20250228958A1

- SUBJECT_OF_TEST: Thrombospondin human platelet (Calbiochem, 605225) (human, UniProt P07996 19-1170)
- Sequence (P07996 19-1170 limits assumed): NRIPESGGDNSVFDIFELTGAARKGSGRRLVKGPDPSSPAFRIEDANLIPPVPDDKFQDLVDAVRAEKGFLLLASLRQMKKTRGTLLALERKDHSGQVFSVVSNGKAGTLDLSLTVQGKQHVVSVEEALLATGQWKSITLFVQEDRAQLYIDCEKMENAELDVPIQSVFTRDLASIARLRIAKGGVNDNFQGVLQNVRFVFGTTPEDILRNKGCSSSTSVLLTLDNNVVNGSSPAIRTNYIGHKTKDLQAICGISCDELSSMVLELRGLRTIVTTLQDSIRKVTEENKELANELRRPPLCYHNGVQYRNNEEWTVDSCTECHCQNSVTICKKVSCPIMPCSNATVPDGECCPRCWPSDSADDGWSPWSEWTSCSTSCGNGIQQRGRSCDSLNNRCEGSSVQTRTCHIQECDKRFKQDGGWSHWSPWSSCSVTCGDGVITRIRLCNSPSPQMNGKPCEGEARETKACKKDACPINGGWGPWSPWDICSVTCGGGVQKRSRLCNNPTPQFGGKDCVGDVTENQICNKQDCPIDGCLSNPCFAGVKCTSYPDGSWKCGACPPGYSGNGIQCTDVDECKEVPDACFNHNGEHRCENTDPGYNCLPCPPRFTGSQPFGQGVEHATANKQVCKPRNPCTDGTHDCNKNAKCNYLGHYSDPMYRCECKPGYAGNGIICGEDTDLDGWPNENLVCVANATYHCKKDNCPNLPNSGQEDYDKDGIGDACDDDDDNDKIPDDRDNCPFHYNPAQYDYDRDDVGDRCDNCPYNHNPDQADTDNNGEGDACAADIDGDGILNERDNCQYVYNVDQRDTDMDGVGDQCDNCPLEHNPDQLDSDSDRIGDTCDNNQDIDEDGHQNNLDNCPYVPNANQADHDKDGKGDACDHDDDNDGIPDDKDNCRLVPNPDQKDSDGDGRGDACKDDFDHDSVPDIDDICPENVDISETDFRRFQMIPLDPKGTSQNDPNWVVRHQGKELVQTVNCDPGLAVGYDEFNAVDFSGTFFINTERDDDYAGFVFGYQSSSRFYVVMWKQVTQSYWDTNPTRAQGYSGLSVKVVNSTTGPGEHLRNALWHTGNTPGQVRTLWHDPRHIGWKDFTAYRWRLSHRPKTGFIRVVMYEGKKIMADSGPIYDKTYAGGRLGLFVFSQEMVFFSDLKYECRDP
- TEST_SUMMARY: cell-based or functional assay
Positions of bridges follow the written chain, without caps; N, C: chain ends. Non-standard residues stand in square brackets, D forms with d. No end group written: not given here. 2Nal = N[C@@H](Cc1ccc2ccccc2c1)C(=O)O; Gly(cPent) = N[C@H](C(=O)O)C1CCCC1; 4Pal = N[C@@H](Cc1ccncc1)C(=O)O; Agb = N=C(N)NCC[C@H](N)C(=O)O; Pen = CC(C)(S)[C@H](N)C(=O)O; Phg = N[C@H](C(=O)O)c1ccccc1; hCys = N[C@@H](CCS)C(=O)O
# Y = IC50 for inhibition of cell adhesion (HUVEC to coated human TSP1) below 20 nM (exclusive); N = IC50 for inhibition of cell adhesion (HUVEC to coated human TSP1) at/above 20 nM

| BINDER | ASSIGNED_CATEGORY |
| --- | --- |
| [2Nal]R[hCys]G[Agb]NW[hCys]RW[Gly(cPent)]C-NH2 (disulfide 3-8; bridge N-12; not fully specified (N-terminus, bridges)) [Peptide-1] | Y |
| [2Nal]RSG[Agb]NWVRW[Gly(cPent)]C (bridge N-12; not fully specified (N-terminus, C-terminus, bridges); also: C-terminus amide-bonded to a linker (not defined)) [Peptide-115] | Y |
| [2Nal]R[hCys]G[Agb]DW[hCys]RW[Gly(cPent)]C-NH2 (disulfide 3-8; bridge N-12; not fully specified (N-terminus, bridges)) [Peptide-9] | N |
| [2Nal]RCGRDW[Pen]RW[Gly(cPent)]C-NH2 (bridge 3-8, N-12; not fully specified (N-terminus, bridges)) [Peptide-139] | N |
| [2Nal]R[hCys]GRDW[hCys]RW[Gly(cPent)]C-NH2 (linker 3-8 via acetone bridge (-S-CH2-CO-CH2-S-); bridge N-12; not fully specified (N-terminus, bridges)) [Peptide-125] | N |
| [2Nal]R[hCys]GRDW[hCys]RW[Gly(cPent)]C-NH2 (disulfide 3-8; bridge N-12; not fully specified (N-terminus, bridges)) [Peptide-11] | N |
| [2Nal]R[hCys]GRNW[hCys]VW[Gly(cPent)]C-NH2 (disulfide 3-8; bridge N-12; not fully specified (N-terminus, bridges)) [Peptide-7] | N |
| [2Nal][Phg][hCys]G[Agb]NW[hCys]RW[Gly(cPent)]C-NH2 (disulfide 3-8; bridge N-12; not fully specified (N-terminus, bridges)) [Peptide-3] | N |
| [2Nal]R[Pen]GRDW[hCys]RW[Gly(cPent)]C-NH2 (disulfide 3-8; bridge N-12; not fully specified (N-terminus, bridges)) [Peptide-135] | N |
| [2Nal]RCGRDW[Pen]RW[Gly(cPent)]C-NH2 (disulfide 3-8; bridge N-12; not fully specified (N-terminus, bridges)) [Peptide-138] | N |
| [2Nal]RCGRDW[hCys]RW[Gly(cPent)]C-NH2 (disulfide 3-8; bridge N-12; not fully specified (N-terminus, bridges)) [Peptide-126] | Y |
| [2Nal]R[Pen]GRDWCRW[Gly(cPent)]C-NH2 (bridge 3-8, N-12; not fully specified (N-terminus, bridges)) [Peptide-137] | N |
| [2Nal]RCGRDW[hCys]RW[Gly(cPent)]C-NH2 (bridge 3-8, N-12; not fully specified (N-terminus, bridges)) [Peptide-131] | Y |
| [2Nal]R[hCys]G[Agb]NW[hCys][4Pal]W[Gly(cPent)]C-NH2 (disulfide 3-8; bridge N-12; not fully specified (N-terminus, bridges)) [Peptide-5] | N |
